B1: STEAP1 (parent)
chain: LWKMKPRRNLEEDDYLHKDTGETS

Variants of: B1
Test Details: protein stability index of a GFP-peptide fusion (GPS, HEK-293T) (PSI 1-6); higher = more stable;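 further: lentivirally expressed fusions sorted by FACS into six bins by GFP to DsRed ratio, PSI derived from sequencing read proportions per bin multiplied by bin number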
Stated Conditions: c terminus: a fixed tail appended
Measured protein stability index, listed per entry.
Readout Label: protein stability index

>>> test_result("M4C")
4.27
>>> test_result("E12C")
3.96
>>> test_result("D14M")
4
>>> test_result("M4H")
4.81
>>> test_result("K3M")
4.11
>>> test_result("K5L")
3.98
>>> test_result("T23N")
4.37
>>> test_result("T20E")
4.8
>>> test_result("D13N")
4.35
>>> test_result("Y15M")
4.68
>>> test_result("Y15L")
4.33
